Assay: Oral bioavailability in rat
Type: in vivo
Settings: plasma, oral 12.5 μmol/kg vs i.v. 5 μmol/kg, AUC ratio
quantity kind: bioavailability

Prompt: Which bioavailability value belongs to CCN1CCC(c2cc(F)cc(S(C)(=O)=O)c2)CC1 ?
Completion: ~85%

---

Molecular target: hERG ion channel (Homo sapiens, UniProt Q12809)
Sequence (Q12809 whole entry): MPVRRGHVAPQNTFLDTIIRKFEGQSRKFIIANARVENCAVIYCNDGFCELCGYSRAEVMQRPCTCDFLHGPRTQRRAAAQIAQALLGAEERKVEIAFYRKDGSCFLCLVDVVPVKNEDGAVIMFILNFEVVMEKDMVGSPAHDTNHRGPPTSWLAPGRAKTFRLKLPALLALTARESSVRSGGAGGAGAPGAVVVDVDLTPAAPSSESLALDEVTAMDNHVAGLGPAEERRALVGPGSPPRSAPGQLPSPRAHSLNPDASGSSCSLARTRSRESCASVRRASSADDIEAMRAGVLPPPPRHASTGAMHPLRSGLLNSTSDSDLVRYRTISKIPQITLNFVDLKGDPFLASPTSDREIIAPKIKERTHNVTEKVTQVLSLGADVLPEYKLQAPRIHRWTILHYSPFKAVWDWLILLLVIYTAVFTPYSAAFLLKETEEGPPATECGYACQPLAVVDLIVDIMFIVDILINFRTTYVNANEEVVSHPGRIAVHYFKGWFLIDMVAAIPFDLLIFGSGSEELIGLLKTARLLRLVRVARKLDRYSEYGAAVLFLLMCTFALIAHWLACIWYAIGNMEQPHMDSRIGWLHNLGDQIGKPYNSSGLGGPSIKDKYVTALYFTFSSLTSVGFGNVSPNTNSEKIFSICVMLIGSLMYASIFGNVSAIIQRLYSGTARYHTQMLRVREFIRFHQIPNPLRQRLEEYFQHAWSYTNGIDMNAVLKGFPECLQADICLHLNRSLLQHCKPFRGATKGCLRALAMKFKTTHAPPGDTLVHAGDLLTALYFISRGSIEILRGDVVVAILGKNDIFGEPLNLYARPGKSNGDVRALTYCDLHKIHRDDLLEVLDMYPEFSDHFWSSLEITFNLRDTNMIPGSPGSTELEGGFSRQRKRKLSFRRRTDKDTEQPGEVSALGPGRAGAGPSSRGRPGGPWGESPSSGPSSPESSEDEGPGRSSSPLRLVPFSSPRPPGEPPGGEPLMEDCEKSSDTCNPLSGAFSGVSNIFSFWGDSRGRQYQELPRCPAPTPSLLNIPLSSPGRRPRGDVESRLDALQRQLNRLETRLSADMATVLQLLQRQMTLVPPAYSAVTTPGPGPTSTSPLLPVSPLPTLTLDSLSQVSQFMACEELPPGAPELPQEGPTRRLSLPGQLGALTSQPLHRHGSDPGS
Test: hERG affinity by Rapid ICE automated patch-clamp (HEK293 cells stably transfected with HERG cDNA)
quantity kind: pIC50
Kindly note that pIC50 refers to -log10 of the concentration in mol/L and answer with the value alone.

Example cases with answers are listed next.
compound="CCN1CCC(c2cc(F)cc(S(C)(=O)=O)c2)CC1 [Example 2]" assay_system="hERG ion channel (Homo sapiens, UniProt Q12809)" test_result=4.66
compound="CCCN1CCC(c2cc(F)cc(S(C)(=O)=O)c2)CC1 [Example 1]" assay_system="hERG ion channel (Homo sapiens, UniProt Q12809)" test_result=5.01
compound="CCCN1CCC(c2cc(F)cc(C(F)(F)F)c2)CC1 [reference compound]" assay_system="hERG ion channel (Homo sapiens, UniProt Q12809)" test_result=5.82

Moving on to another compound below.
Prompt: Which pIC50 value belongs to CCCN1CCC(c2ccc(Cl)c(C(F)(F)F)c2)CC1 [reference compound] ?
Completion: 6.21

// data source = patent US8501777B2
